Method Summary: Pharmacokinetic test in dogs
Type: in vivo, male beagles
Run Parameters: male, beagle, dog, plasma, PO 2 mg/kg vs IV 1 mg/kg
Property: bioavailability (%)
Please state the figure in %; there is no need to write the unit.

Asked: Which value of bioavailability has been reported for "[2H]C([2H])([2H])N(c1nc(-c2ccc(F)cc2)c(C#N)s1)c1c(CC)nn2cc(F)c(N3CCN(CC(=O)N4CC(O)C4)CC3)cc12" in the records?
Given back: 116

* * *

Method Summary: Pharmacokinetic test in rats
Type: in vivo
Run Parameters: male, SD, rat, plasma, IV 1 mg/kg, read-out: C0 or Cmax
Property: Cmax (ng/mL)
Please state the figure in ng/mL; there is no need to write the unit.

Asked: Which value of Cmax has been reported for "[2H]C([2H])([2H])C([2H])([2H])c1nn2cc(F)c(N3CCN(CC(=O)N4CC(O)C4)CC3)cc2c1N(C)c1nc(-c2ccc(F)cc2)c(C#N)s1" in the records?
Given back: 967

Asked: "[2H]C([2H])([2H])N(c1nc(-c2ccc(F)cc2)c(C#N)s1)c1c(C([2H])([2H])C([2H])([2H])[2H])nn2cc(F)c(N3CCN(CC(=O)N4CC(O)C4)CC3)cc12" , same question.
Given back: 1030

Asked: "[2H]c1c([2H])c(-c2nc(N(C)c3c(CC)nn4cc(F)c(N5CCN(CC(=O)N6CC(O)C6)CC5)cc34)sc2C#N)c([2H])c([2H])c1F" , same question.
Given back: 748

Asked: "[2H]c1c([2H])c(-c2nc(N(c3c(CC)nn4cc(F)c(N5CCN(CC(=O)N6CC(O)C6)CC5)cc34)C([2H])([2H])[2H])sc2C#N)c([2H])c([2H])c1F" , same question.
Given back: 813
